Target: MAGL (recombinant wild-type) (Homo sapiens, UniProt Q99685)
Experiment: 4-NPA assay: MAGL inhibitory activity by hydrolysis of 4-nitrophenylacetate, absorbance at 405 nm
Settings: 4-NPA assay (values without footnote [a])
Measure name: IC50
Write your answer as a measured quantity: the number, then the unit.

| Compound | IC50 |
| --- | --- |
| O=C1COc2ccc(C(=O)N3CCC(C(c4ccccc4)c4cccnc4F)CC3)cc2N1 (centres unmarked) | 1.84 nM |
| COc1ccc([C@H](c2ccccc2)C2CCN(C(=O)c3ccc4c(c3)NC(=O)CO4)CC2)cc1OC (single isomer, unassigned) | 4 nM |
| O=C1COc2ccc(C(=O)N3CCN(c4ccc(Cl)c(Cl)c4)CC3)cc2N1 | 612 nM |
| O=C1COc2ccc(C(=O)N3CCC(C(c4ccccc4)c4cccc(F)n4)CC3)cc2N1 (single isomer, unassigned) [Example 99] | 2.6 nM |
| COc1ccc(C(c2ccc(F)cc2)C2CCN(C(=O)c3ccc4c(c3)NC(=O)CO4)CC2)cc1OC (single isomer, unassigned) [Example 105] | 0.8 nM |

Hi team, please reply with IC50 for each item in this list.
1. O=C1COc2ccc(C(=O)N3CCC(C(c4ccc(F)cc4)c4ccnc(F)c4)CC3)cc2N1 (single isomer, unassigned) [Example 111]
2. CC(C)n1nc(C2CCN(C(=O)c3ccc4c(c3)NC(=O)CO4)CC2)c2ccc(F)cc21
3. CS(=O)(=O)c1cccc(C(c2ccccc2)C2CCN(C(=O)c3ccc4c(c3)NC(=O)CO4)CC2)c1 (single isomer, unassigned) [Example 128]
4. COc1ccc([C@H](c2ccccc2)C2CCN(C(=O)c3ccc4c(c3)NC(=O)CO4)CC2)cc1 (single isomer, unassigned)

**A:**
["1.5 nM", "86 nM", "0.6 nM", "1.9 nM"]

----------
Molecular target: MAGL (recombinant wild-type) (Homo sapiens, UniProt Q99685)
Sequence (Q99685 1-303): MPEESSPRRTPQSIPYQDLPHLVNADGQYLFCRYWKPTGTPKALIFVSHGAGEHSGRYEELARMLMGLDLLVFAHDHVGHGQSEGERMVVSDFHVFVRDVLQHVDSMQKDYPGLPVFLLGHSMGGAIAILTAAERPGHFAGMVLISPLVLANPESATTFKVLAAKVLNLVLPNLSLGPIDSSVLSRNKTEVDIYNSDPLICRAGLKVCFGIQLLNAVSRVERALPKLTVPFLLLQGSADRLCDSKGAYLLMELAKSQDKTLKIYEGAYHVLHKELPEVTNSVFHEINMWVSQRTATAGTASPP
Experiment: 4-NPA assay: MAGL inhibitory activity by hydrolysis of 4-nitrophenylacetate, absorbance at 405 nm
Conditions: 4-NPA assay (values without footnote [a])
pIC50: −log10 of the molar value.
Answer no if pIC50 is under 8, and yes if it is 8 or more.

See these solved cases before continuing.
| Compound | Class label |
| --- | --- |
| COc1ccc(C(c2ccc(F)cc2)C2CCN(C(=O)c3ccc4c(c3)NC(=O)CO4)CC2)cc1OC (single isomer, unassigned) [Example 104] | yes |
| O=C1COc2ccc(C(=O)N3CCC([C@@H](c4ccc(F)cc4)c4cccc(OCCOCCF)c4)CC3)cc2N1 (single isomer, unassigned) | yes |

**Q:** Can O=C1COc2ccc(C(=O)N3CCC(c4nccc(C(F)(F)F)n4)C3)cc2N1 (stereo not shown) be said to have pIC50 at or above 8?
**A:** no

**Q:** Can O=C1COc2ccc(C(=O)N3CCC(c4c[nH]c5ccc(Cl)cc45)CC3)cc2N1 be said to have pIC50 at or above 8?
**A:** yes

**Q:** Can O=C1COc2ccc(C(=O)N3CCC(C(c4ccc(F)cc4)c4cccc(F)n4)CC3)cc2N1 (single isomer, unassigned) [Example 118] be said to have pIC50 at or above 8?
**A:** yes

----------
What pIC50 was measured for each of the following?
Biological target: MAGL (recombinant wild-type) (Homo sapiens)
Assay: 4-NPA assay: MAGL inhibitory activity by hydrolysis of 4-nitrophenylacetate, absorbance at 405 nm
Conditions: 4-NPA assay (values without footnote [a])
Answers are plain numbers, as −log10 of the molar value.

Hi team, please reply with pIC50 for each item in this list.
1. O=C1COc2ccc(C(=O)N3CCC([C@@H](c4ccc(F)cc4)c4cccc(OCCF)c4)CC3)cc2N1
2. O=C1COc2ccc(C(=O)N3CCC(c4nn(CCO)c5cc(F)ccc45)CC3)cc2N1
3. O=C1COc2ccc(C(=O)N3CCC(c4cc5ccccc5[nH]4)CC3)cc2N1

**A:**
8.78
6.46
6.26

Hi team, please reply with pIC50 for each item in this list.
1. O=C1COc2ccc(C(=O)N3CCC(c4cn(C5CC5)c5cc(Cl)ccc45)CC3)cc2N1
2. O=C1COc2ccc(C(=O)N3CCC(C(c4ccccc4)n4ccc5ccccc54)CC3)cc2N1 (centres unmarked)
3. O=C1COc2ccc(C(=O)N3CCN(c4nsc5ccccc45)CC3)cc2N1
4. O=C1COc2ccc(C(=O)N3CCC(c4noc5ccc(F)cc45)CC3)cc2N1
5. Cc1ccc([C@H](c2ccccc2)C2CCN(C(=O)c3ccc4c(c3)NC(=O)CO4)CC2)cc1 (single isomer, unassigned)

**A:**
[7.44, 9.21, 5.62, 6.85, 9.30]

----------
What IC50 was measured for each of the following?
Target: MAGL (recombinant wild-type) (Homo sapiens, UniProt Q99685)
Experiment: 4-NPA assay: MAGL inhibitory activity by hydrolysis of 4-nitrophenylacetate, absorbance at 405 nm
Conditions: 4-NPA assay (values without footnote [a])

Below are worked cases with known answers.
| Compound | Tested target | IC50 |
| --- | --- | --- |
| O=C1COc2ccc(C(=O)N3CCC(C4(c5ccccc5)CC4)CC3)cc2N1 | MAGL (recombinant wild-type) (Homo sapiens, UniProt Q99685) | 68 nM |
| COc1ccc(C(c2ccccc2)C2CCN(C(=O)c3ccc4c(c3)NC(=O)CO4)CC2)cc1 (stereo not shown) | MAGL (recombinant wild-type) (Homo sapiens, UniProt Q99685) | 0.8 nM |
| O=C1COc2ccc(C(=O)N3CCC([C@@H](c4ccccc4)c4ccc(OCCF)cc4)CC3)cc2N1 | MAGL (recombinant wild-type) (Homo sapiens, UniProt Q99685) | 0.3 nM |
| COc1ccc(C(c2ccncc2)C2CCN(C(=O)c3ccc4c(c3)NC(=O)CO4)CC2)cc1OC (single isomer, unassigned) [Example 126] | MAGL (recombinant wild-type) (Homo sapiens, UniProt Q99685) | 8.5 nM |
| O=C1COc2ccc(C(=O)N3CCC([C@H](c4ccccc4)c4cccc(OCCOCCF)c4)CC3)cc2N1 | MAGL (recombinant wild-type) (Homo sapiens, UniProt Q99685) | 0.24 nM |
| O=C1COc2ccc(C(=O)N3CCC(c4cccc(Cl)c4)C3)cc2N1 (stereo not shown) | MAGL (recombinant wild-type) (Homo sapiens, UniProt Q99685) | 1400 nM |

Hi team, please reply with IC50 for each item in this list.
1. COc1ccc2[nH]cc(C3CCN(C(=O)c4ccc5c(c4)NC(=O)CO5)CC3)c2c1
2. Cc1cccc([C@@H](c2ccccc2)C2CCN(C(=O)c3ccc4c(c3)NC(=O)CO4)CC2)c1 (single isomer, unassigned)
3. Cn1cc(C2CCN(C(=O)c3ccc4c(c3)NC(=O)CO4)CC2)c2ccc(Cl)cc21
4. Cn1cc(C2CCN(C(=O)c3ccc4c(c3)NC(=O)CO4)CC2)c2cc(Cl)c(F)cc21
5. O=C1CCc2c(cc(C(=O)N3CCC(C(c4ccccc4)c4ccccc4)CC3)cc2OCCF)N1
6. COc1ccc(C(c2ccccn2)C2CCN(C(=O)c3ccc4c(c3)NC(=O)CO4)CC2)cc1OC (single isomer, unassigned) [Example 116]
7. O=C1COc2ccc(C(=O)N3CCC(C(c4ccc(F)cc4)c4ccc(F)cc4)CC3)cc2N1

**A:**
["20 nM", "0.2 nM", "22.9 nM", "2.8 nM", "6.2 nM", "55.4 nM", "2.03 nM"]

Hi team, please reply with IC50 for each item in this list.
1. O=C1COc2ccc(C(=O)N3CCC(C4(c5ccc(Cl)cc5)CCCO4)CC3)cc2N1 (stereo not shown)
2. O=C1COc2ccc(C(=O)N3CCC([C@@H](c4ccccc4)c4cccc(F)c4)CC3)cc2N1
3. O=C1COc2ccc(C(=O)N3CCN(c4cc(C(F)(F)F)ccn4)CC3)cc2N1

**A:**
6.3 nM
0.56 nM
1480 nM

Hi team, please reply with IC50 for each item in this list.
1. O=C1COc2ccc(C(=O)N3CCC(c4noc5cc(C(F)(F)F)ccc45)CC3)cc2N1
2. O=C1COc2ccc(C(=O)N3CCC(c4nnc(-c5ccccc5)o4)CC3)cc2N1
3. Cn1cc(C2CCN(C(=O)c3cc4c(cc3F)OCC(=O)N4)CC2)c2cc(Cl)ccc21
4. O=C1COc2ccc(C(=O)N3CCN(c4cc(Cl)cc(Cl)c4)CC3)cc2N1
5. O=C1COc2ccc(C(=O)N3CCC(c4c[nH]c5ncccc45)CC3)cc2N1
6. O=C1COc2ccc(C(=O)N3CCC(C(c4ccc(F)cc4)c4ccnc(F)c4)CC3)cc2N1 (single isomer, unassigned) [Example 110]
7. COc1ccc(C(c2cccnc2)C2CCN(C(=O)c3ccc4c(c3)NC(=O)CO4)CC2)cc1OC (single isomer, unassigned) [Example 123]
8. O=C1COc2ccc(C(=O)N3CCC(C(c4ccccc4)c4cccc(F)c4)CC3)cc2N1 (stereo not shown)

**A:**
150 nM
549 nM
1 nM
1320 nM
220 nM
6.2 nM
8.7 nM
0.69 nM

Hi team, please reply with IC50 for each item in this list.
1. COc1cccc([C@H](c2ccccc2)C2CCN(C(=O)c3ccc4c(c3)NC(=O)CO4)CC2)c1 (single isomer, unassigned)
2. Cc1[nH]c2ccc(Cl)cc2c1C1CCN(C(=O)c2ccc3c(c2)NC(=O)CO3)CC1

**A:**
["0.4 nM", "59 nM"]
